- assayed.target: MEK1^CA (human GST-MEK1, constitutively active, Ser218Asp and Ser222Asp) (Homo sapiens, UniProt Q02750, S218D/S222D)
- Construct: GST; made in house; host or cells: Escherichia coli
- Sequence (Q02750 whole entry S218D/S222D): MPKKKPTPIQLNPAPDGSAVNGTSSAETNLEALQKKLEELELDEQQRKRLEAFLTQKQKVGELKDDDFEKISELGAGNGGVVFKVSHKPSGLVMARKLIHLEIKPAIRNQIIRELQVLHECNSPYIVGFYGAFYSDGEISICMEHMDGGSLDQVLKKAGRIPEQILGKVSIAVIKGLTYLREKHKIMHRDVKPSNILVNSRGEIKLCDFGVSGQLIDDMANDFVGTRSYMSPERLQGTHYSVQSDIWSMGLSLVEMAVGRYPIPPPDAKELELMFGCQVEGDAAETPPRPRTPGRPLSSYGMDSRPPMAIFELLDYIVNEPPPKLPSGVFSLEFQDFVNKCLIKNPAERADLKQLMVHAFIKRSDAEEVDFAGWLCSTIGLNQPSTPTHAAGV
- test.summary: MEK1 enzymatic activity assay (MEK1^CA / ERK2 / MBP, [γ-33P]ATP incorporation)
- Format: biochemical
- stated.conditions: Table 1, compounds of formula I; read-out: Avg IC50
pIC50: −log10 of the molar value.
observation.type: pIC50

• CC(C)NC(=N)c1c(O)nsc1Nc1ccc([C@H]2CC[C@H](OC(=O)C(C)C)CC2)cc1 = 6.30 to 7.00
• CCC(C)CNC(=N)c1c(O)nsc1Nc1ccc(Oc2ccccc2)cc1 (centres unmarked) = 7.00 to 9.00
• CN(C)CCNC(=N)c1c(O)nsc1Nc1ccc(Oc2cc(F)cc(F)c2)cc1 = 6.30 to 7.00
• N=C(NCCO)c1c(O)nsc1Nc1ccc(-c2nc3ccccc3[nH]2)cc1 = < 6.30

For every item below, please supply its pIC50.
1. Cc1ccc(Nc2snc(O)c2C(=N)NN2CCCCC2)cc1
2. Cc1ccc(Cl)cc1Oc1ccc(Nc2snc(O)c2C(=N)NC(C)CO)cc1 (centres unmarked)
3. CC(C)NC(=N)c1c(O)nsc1Nc1ccc(Oc2ccc(F)cc2Cl)cc1C(F)(F)F
4. CCC(CO)NC(=N)c1c(O)nsc1Nc1ccc(Oc2cccc(C(F)(F)F)c2)cc1C (centres unmarked)
5. CCC[C@H]1CC[C@H](c2ccc(Nc3snc(O)c3C(=N)NCC(C)(C)CO)cc2)CC1

Response line:
["6.30 to 7.00", "7.00 to 9.00", "7.00 to 9.00", "7.00 to 9.00", "6.30 to 7.00"]

For every item below, please supply its pIC50.
1. CC(CO)NC(=N)c1c(O)nsc1Nc1ccc(Oc2cccc(C(F)(F)F)c2)nc1 (centres unmarked)
2. N=C(NCCCO)c1c(O)nsc1Nc1ccc(Oc2ccccc2)cc1

Response line:
7.00 to 9.00
7.00 to 9.00

----------
- assayed.target: MEK1^CA (human GST-MEK1, constitutively active, Ser218Asp and Ser222Asp) (Homo sapiens, UniProt Q02750, S218D/S222D)
- Construct: GST; made in house; host or cells: Escherichia coli
- test.summary: MEK1 enzymatic activity assay (MEK1^CA / ERK2 / MBP, [γ-33P]ATP incorporation)
- Format: biochemical
- stated.conditions: Table 1, compounds of formula I; read-out: Avg IC50
- From the text: Materials and preparation of reagents: Human GST-MEK1 and the constitutively active allele GST-MEK1^CA (harboring the mutations Ser218Asp and Ser222Asp) were subcloned into the […] expression vector pGEM4Z (Promega, Madison, Wis.) from the wild type human MEK1 cDNA. GST-MEK1^CA was expressed in Escherichia coli and partially purified using Glutathione Sepharose 4B affinity resin (Amersham Pharmacia Biotech, Piscataway, N.J.). […]
pIC50: −log10 of the molar value.
observation.type: pIC50

* CC(CO)NC(=N)c1c(O)nsc1Nc1cc(F)c(Oc2cc(Cl)ccc2Cl)cc1F (stereo not drawn) [compound 476] | 7.00 to 9.00
* COCCCNc1snc(O)c1C(=N)NCCOc1ccccc1 [compound 112] | < 6.30

Consider the additional compound presented here.
Prompt line: pIC50 lookup needed for N=C(NCC(O)O)c1c(O)nsc1Nc1ccc([N+](=O)[O-])cc1 [compound 78] , thanks.
Response line: < 6.30

----------
- assayed.target: MEK1^CA (human GST-MEK1, constitutively active, Ser218Asp and Ser222Asp) (Homo sapiens, UniProt Q02750, S218D/S222D)
- Construct: GST; made in house; host or cells: Escherichia coli
- test.summary: MEK1 enzymatic activity assay (MEK1^CA / ERK2 / MBP, [γ-33P]ATP incorporation)
- Format: biochemical
- stated.conditions: Table 1, compounds of formula I; read-out: Avg IC50
pIC50: −log10 of the molar value.
observation.type: pIC50

• Cc1cc(Oc2cc(Cl)ccc2Cl)ccc1Nc1snc(O)c1C(=N)NC(C)C [compound 460] = 7.00 to 9.00

For every item below, please supply its pIC50.
1. N=C(NCCc1cccc(F)c1)c1c(O)nsc1Nc1ccc(Oc2ccccc2)cc1 [Cpd 17]
2. CC(C)CC(C)NC(=N)c1c(O)nsc1Nc1ccc(Oc2ccccc2)cc1 (stereo not drawn) [compound 35]
3. N=C(NCC1CCCCC1)c1c(O)nsc1Nc1ccc(Oc2ccc(Cl)cc2)cc1 [compound 140]

Response line:
6.30 to 7.00
6.30 to 7.00
7.00 to 9.00

For every item below, please supply its pIC50.
1. CC(C)NC(=N)c1c(O)nsc1Nc1ccc(Oc2ccc(Cl)cc2Cl)cc1 [compound 232]
2. CN(C)CCNC(=N)c1c(O)nsc1Nc1ccc(Oc2cc(Cl)ccc2Cl)cc1 [compound 443]
3. CC(CO)NC(=N)c1c(O)nsc1Nc1ccc(Oc2cccc(Br)c2)cc1 (stereo not drawn) [compound 251]

Response line:
1: 7.00 to 9.00; 2: 7.00 to 9.00; 3: 7.00 to 9.00

For every item below, please supply its pIC50.
1. CCOC(=O)c1ccc(Oc2ccc(Nc3snc(O)c3C(=N)NC(C)CO)cc2)cc1 (stereo not drawn) [compound 497]
2. Cc1cc(Oc2cc(F)cc(F)c2)ccc1Nc1snc(O)c1C(=N)NO [compound 465]

Response line:
7.00 to 9.00
6.30 to 7.00

----------
- assayed.target: MEK1^CA (human GST-MEK1, constitutively active, Ser218Asp and Ser222Asp) (Homo sapiens, UniProt Q02750, S218D/S222D)
- Construct: GST; made in house; host or cells: Escherichia coli
- test.summary: MEK1 enzymatic activity assay (MEK1^CA / ERK2 / MBP, [γ-33P]ATP incorporation)
- Assay type: biochemical
- stated.conditions: Table 1, compounds of formula I; read-out: Avg IC50
pIC50: −log10 of the molar value.
observation.type: pIC50

* COC(=O)c1ccccc1Nc1snc(O)c1C(N)=NCC1CCCCC1 | < 6.30

For every item below, please supply its pIC50.
1. Cc1cccc(C)c1Oc1ccc(Nc2snc(O)c2C(=N)NC(C)C)cc1
2. CC(CO)NC(=N)c1c(O)nsc1Nc1ccc(Oc2cc(Cl)ccc2Cl)nc1 (centres unmarked)
3. C[C@H](NC(=N)c1c(O)nsc1Nc1ccc(Oc2ccccc2)cc1)c1ccccc1
4. CC(C)(CO)NC(=N)c1c(O)nsc1Nc1ccc(Oc2ccccc2)cc1
5. COCC(C)NC(=N)c1c(O)nsc1Nc1ccc(Oc2cccc(F)c2F)cc1C (centres unmarked)
6. Cc1cc(Nc2snc(O)c2C(=N)NC(C)C)ccc1Oc1ccc(F)cc1
7. N=C(NC1CCCCC1)c1c(O)nsc1Nc1ccc(Oc2ccccc2)cc1
8. N=C(NCC1CCCCC1)c1c(O)nsc1Nc1ccc(N2CCOCC2)nc1

Response line:
1. < 6.30
2. 7.00 to 9.00
3. 6.30 to 7.00
4. 6.30 to 7.00
5. 7.00 to 9.00
6. < 6.30
7. 7.00 to 9.00
8. < 6.30

----------
- assayed.target: MEK1^CA (human GST-MEK1, constitutively active, Ser218Asp and Ser222Asp) (Homo sapiens, UniProt Q02750, S218D/S222D)
- Construct: GST; made in house; host or cells: Escherichia coli
- test.summary: MEK1 enzymatic activity assay (MEK1^CA / ERK2 / MBP, [γ-33P]ATP incorporation)
- Format: biochemical
- stated.conditions: Table 1, compounds of formula I; read-out: Avg IC50
- Text: Materials and preparation of reagents: Human GST-MEK1 and the constitutively active allele GST-MEK1^CA (harboring the mutations Ser218Asp and Ser222Asp) were subcloned into the […] expression vector pGEM4Z (Promega, Madison, Wis.) from the wild type human MEK1 cDNA. GST-MEK1^CA was expressed in Escherichia coli and partially purified using Glutathione Sepharose 4B affinity resin (Amersham Pharmacia Biotech, Piscataway, N.J.). […]
observation.type: IC50

Examples from the recorded data:
* CC(C)NC(=N)c1c(O)nsc1Nc1ccc(Oc2cccc(Cl)c2)cc1 [compound 249] | 1 to 100 nM
* CC(CO)N=C(N)c1c(O)nsc1Nc1ccc(Oc2cc(C(F)(F)F)ccc2I)cc1 (stereo not drawn) [compound 385] | 1 to 100 nM
* CC(C)NC(=N)c1c(O)nsc1Nc1ccc(Oc2cc(Cl)ccc2Cl)cc1 [compound 313] | > 500 nM
* CC(C)NC(=N)c1c(O)nsc1Nc1ccc(Cl)nc1 [compound 264] | > 500 nM

For every item below, please supply its IC50.
1. N=C(NCCO)c1c(O)nsc1Nc1ccc(Oc2ccccc2)cc1 [compound 33]
2. N=C(NCC1CCCCC1)c1c(O)nsc1Nc1ccc(Oc2ccccc2)cc1 [compound 37]

Response line:
1. 1 to 100 nM
2. 1 to 100 nM

The reported measurements were obtained from patent US7652047B2.
